Assignment: determine reported relative growth for the given compounds.
- Test system: Paenibacillus 1 (Paenibacillus castaneae)
- experimental.protocol: relative growth (AUC of 72 h growth curve relative to DMSO control, dAUC) (ratio); higher = more growth (less inhibition), active = hit call of the paper
- measurement.setup: 20 µM
Answer field: number only, no words.

Give relative growth (Paenibacillus 1 (Paenibacillus castaneae)) of the following compound: CCOCn1c(-c2ccc(Cl)cc2)c(C#N)c(Br)c1C(F)(F)F
0.978

Lab request: please report relative growth under test system Paenibacillus 1 (Paenibacillus castaneae) for CC(C)OC(=O)Nc1cccc(Cl)c1
1.12

For Paenibacillus 1 (Paenibacillus castaneae), provide relative growth of CN(C)C(CSS(=O)(=O)O)CSS(=O)(=O)O please.
0.935

Give the reported relative growth for CCSC(C)CC1CC(=O)C(/C(CC)=N/OC/C=C/Cl)=C(O)C1 (mixture of isomers) (system: Paenibacillus 1 (Paenibacillus castaneae)).
0.995

Enter reported relative growth observed with Paenibacillus 1 (Paenibacillus castaneae) for C#CCN1C(=O)COc2cc(F)c(N3C(=O)C4=C(CCCC4)C3=O)cc21
0.935

// fetch Paenibacillus 1 (Paenibacillus castaneae) relative growth for CSc1nnc(C(C)(C)C)c(=O)n1N
1.02

Reported relative growth for Paenibacillus 1 (Paenibacillus castaneae), given CCCCc1c(C)nc(NCC)nc1OS(=O)(=O)N(C)C ?
0.906

Test system Paenibacillus 1 (Paenibacillus castaneae); read-out relative growth; what value for CCOc1cc(Oc2ccc(C(F)(F)F)cc2Cl)ccc1[N+](=O)[O-] ?
0.735

Please tell me: relative growth of CS(=O)(=O)c1ccc(C(=O)C2C(=O)CCCC2=O)c([N+](=O)[O-])c1 , system Paenibacillus 1 (Paenibacillus castaneae)?
1.03

Report relative growth for Cc1cc(C)nc(Nc2ccccc2)n1 tested on Paenibacillus 1 (Paenibacillus castaneae).
0.762

Form field - read-out: relative growth; system: Paenibacillus 1 (Paenibacillus castaneae); submitted item: CCOc1ccc(C(C)(C)COCc2cccc(Oc3ccccc3)c2)cc1
0.942

Reported relative growth for Paenibacillus 1 (Paenibacillus castaneae), given COP(=S)(OC)Oc1ccc(SC)c(C)c1 ?
1.02

Under Paenibacillus 1 (Paenibacillus castaneae): relative growth value of CSc1nc(NC(C)C)nc(NC(C)C)n1 ?
0.877

What relative growth appears in the records for this compound with Paenibacillus 1 (Paenibacillus castaneae)? CCCN(CCOc1c(Cl)cc(Cl)cc1Cl)C(=O)n1ccnc1
0.59

// map COC(=O)N(C(=O)N1CO[C@@]2(C(=O)OC)Cc3cc(Cl)ccc3C2=N1)c1ccc(OC(F)(F)F)cc1 to recorded relative growth (system: Paenibacillus 1 (Paenibacillus castaneae))
0.948

Identify the measured relative growth of C[N+](C)(C)CCCl for Paenibacillus 1 (Paenibacillus castaneae).
0.97

Notebook entry, Paenibacillus 1 (Paenibacillus castaneae) assay: relative growth of N#C/N=C1\SCCN1Cc1ccc(Cl)nc1 = ?
1.05

Lab note: need relative growth with Paenibacillus 1 (Paenibacillus castaneae) for entry CCCCN(CCCC)SN(C)C(=O)Oc1cccc2c1OC(C)(C)C2 , please look it up.
1.12

Requested read-out relative growth, target or system Paenibacillus 1 (Paenibacillus castaneae), entry COC(=O)Nc1nc2ccccc2[nH]1
0.946

What reported relative growth corresponds to CN/C(=N/CC1CCOC1)N[N+](=O)[O-] (centres undefined) on Paenibacillus 1 (Paenibacillus castaneae)?
1.01

Value wanted: relative growth (Paenibacillus 1 (Paenibacillus castaneae)) of entry CC(Oc1ccc(Oc2ncc(C(F)(F)F)cc2Cl)cc1)C(=O)O (centres undefined)
0.966

Record O=C(Nc1ccc(F)cc1F)c1cccnc1Oc1cccc(C(F)(F)F)c1 : what is its relative growth with Paenibacillus 1 (Paenibacillus castaneae)?
0.937

Notebook: pull reported relative growth for Paenibacillus 1 (Paenibacillus castaneae), entry CC(C)CC(C)c1sccc1NC(=O)c1cn(C)nc1C(F)(F)F (centres undefined)
0.906

What relative growth appears in the records for this compound with Paenibacillus 1 (Paenibacillus castaneae)? COCc1cnc(C2=NC(C)(C(C)C)C(=O)N2)c(C(=O)O)c1 (centres undefined)
0.966
